tested_on: T1, His-tagged P3028 (human, not fully specified)
T1 construct: the tag is put first after 'PGE73=His-tag-P3028'; also called PGE73; not shown: His-tag
T1 peptide: {His‑tag}-VFDEFKPLVEEPQNLIK
procedure_details: chip ELISA
No end group written: not given here.
Give measured ELISA signal for each item. Keep answers brief.

Here is how some binders turned out for ELISA signal.
Problem: Given KKLDTFFVMLSLFTER [P28R K9M] , respond with its ELISA signal.
Result: 283

Problem: Provide one value: measured ELISA signal of KKLDTFSVKLSLFTER [P28R F7S]
Result: 700

Problem: Indicate its recorded ELISA signal; the binder in question is KKLDTFFDKLSLFTER [P28R V8D]
Result: 122

Problem: Return reported ELISA signal. Input binder: KKLDTFFVKLSLETER [P28R F13E]
Result: 98

Kindly give each listed record's ELISA signal.
1. KKLDTFFNKLSLFTER [P28R V8N]
2. KKLDTFFVKLSLFTSR [P28R E15S]

Result:
203
165

// each listed binder needs a value for ELISA signal
1. KKLKTFFVKLSLFTER [P28R D4K]
2. KKMDTFFVKLSLFTER [P28R L3M]
3. KQLDTFFVKLSLFTER [P28R K2Q]
4. KKLDTFFQKLSLFTER [P28R V8Q]
5. KKLDTFFKKLSLFTER (also called P27; SCF27) [P28R V8K]
6. KKLDTFFVKLSWFTER [P28R L12W]
7. KKLDTFFVKLWLFTER [P28R S11W]

Result:
274
460
350
271
253
409
324

Report ELISA signal for every entry below.
1. KKLDTFFVKLILFTER [P28R S11I]
2. KKLETFFVKLSLFTER [P28R D4E]

Result:
1: 289; 2: 417

For every item in the list below, what is its measured ELISA signal?
1. KKLDTIFVKLSLFTER [P28R F6I]
2. KKLDTAFVKLSLFTER [P28R F6A]
3. KKLDTFFRKLSLFTER [P28R V8R]

Result:
1. 466
2. 575
3. 365

Batch request: ELISA signal for each of the following binders.
1. KKLDTFFVHLSLFTER [P28R K9H]
2. KFLDTFFVKLSLFTER [P28R K2F]
3. KKLDTFFVKLSLFHER [P28R T14H]
4. KKLDTFFVKWSLFTER [P28R L10W]

Result:
[306, 390, 463, 316]

For each of the binders below, note its ELISA signal.
1. KKLDTFFVKFSLFTER [P28R L10F]
2. KKLDTFFVKLNLFTER [P28R S11N]
3. KKVDTFFVKLSLFTER [P28R L3V]
4. KKLDTFFMKLSLFTER [P28R V8M]
5. KKLDTFFVKLVLFTER [P28R S11V]
6. KKLDTFLVKLSLFTER [P28R F7L]

Result:
[403, 451, 377, 221, 392, 517]

Batch request: ELISA signal per item, same order as input.
1. KKLDTFFVDLSLFTER [P28R K9D]
2. KKLDTFFVKLSLFFER [P28R T14F]

Result:
[149, 348]

These data points were gathered from patent US20170298096A1.
